Molecular target: 5HT7 receptor (Homo sapiens)
Sequence (P34969 whole entry): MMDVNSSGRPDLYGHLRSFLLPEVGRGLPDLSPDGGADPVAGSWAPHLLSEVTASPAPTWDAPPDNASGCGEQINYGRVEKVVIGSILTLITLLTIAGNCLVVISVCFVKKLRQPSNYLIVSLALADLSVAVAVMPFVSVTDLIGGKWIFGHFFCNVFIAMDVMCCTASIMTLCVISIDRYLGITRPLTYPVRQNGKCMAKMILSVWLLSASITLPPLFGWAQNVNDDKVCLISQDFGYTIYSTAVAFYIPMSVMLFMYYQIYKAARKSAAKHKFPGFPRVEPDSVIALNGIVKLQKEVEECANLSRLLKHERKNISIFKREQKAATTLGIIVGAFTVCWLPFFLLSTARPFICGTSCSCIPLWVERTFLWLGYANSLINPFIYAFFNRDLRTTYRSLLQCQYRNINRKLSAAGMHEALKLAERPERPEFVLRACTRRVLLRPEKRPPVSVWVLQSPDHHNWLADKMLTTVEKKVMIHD
Assay: Functionality assay on the 5HT7 receptor
pEC50: −log10 of the molar value.
measured-metric: pEC50

>>> measured_result("Cc1nn(C)c(C)c1-c1cccc(CCN(C)C)c1")
7.59

---

Target: Cloned Human Serotonin Receptor, Subtype 7 (h5HT7) (Homo sapiens)
Construct: purchased PerkinElmer 6120512; host or cells: CHO cells
Sequence (P34969 whole entry): as above
Assay: Radioligand binding, [125I]LSD, h5HT7 expressed in CHO cells
Quick reference for IC50 among some compounds
measured-metric: IC50 (nM)

>>> measured_result("COc1cccc(OC)c1-c1cccc(CCN(C)C)c1 [Example 13]")
19.7
>>> measured_result("Cc1cccc(C)c1-c1cccc(CCN(C)C)c1 [Example 9]")
10.1
>>> measured_result("CN(C)CCc1cccc(-c2c(F)cccc2F)c1 [Example 35]")
20.8
>>> measured_result("COc1cccc(OC)c1-c1cccc(CCN)c1 [Example 33]")
122
>>> measured_result("CNCCc1cccc(-c2c(Cl)cccc2OC)c1 [Example 39]")
8.8
>>> measured_result("CCCN(CCC)CCc1cccc(-c2ccccc2OC)c1 [Example 24]")
84.9
>>> measured_result("CN(C)CCc1cccc(-c2c(Cl)cccc2Cl)c1 [Example 34]")
5
>>> measured_result("CCN(CC)CCc1cccc(-c2c(C)cccc2C)c1 [Example 11]")
43.5
>>> measured_result("COc1ncccc1-c1cccc(CCN(C)C)c1 [Example 36]")
303
>>> measured_result("Cc1nn(C)c(C)c1-c1cccc(CCN(C)C)c1 [Example 1]")
6.1
>>> measured_result("COc1cccc(Cl)c1-c1cccc(CCN(C)C)c1 [Example 38]")
24

---

Target: Cloned Human Serotonin Receptor, Subtype 7 (h5HT7) (Homo sapiens)
Construct: purchased PerkinElmer 6120512; host or cells: CHO cells
Experiment: Radioligand binding, [125I]LSD, h5HT7 expressed in CHO cells
Strictly below 0.06 µM in IC50: 1. Otherwise: 0.

>>> cat("CCCN(CCC)CCc1cccc(-c2c(C)nn(C)c2C)c1 [Example 4]")
1
>>> cat("CCCN(CCC)CCc1cccc(-c2c(C)cccc2C)c1 [Example 12]")
1
>>> cat("Cc1nn(C)c(C)c1-c1cccc(CCN)c1 [Example 29]")
1
>>> cat("CCN(CC)CCc1cccc(-c2c(C)nn(C)c2C)c1 [Example 3]")
0
>>> cat("COc1ccccc1-c1cccc(CCN(C)C)c1 [Example 21]")
1
>>> cat("CNCCc1cccc(-c2cccnc2OC)c1 [Example 37]")
0

The values you see were collected from patent US20100152252A1.
